Below are IC50 values recorded for Lysine-specific demethylase 5C (Homo sapiens).
VALUE_TYPE: IC50 (µM)

1 = N[C@H]1C[C@@H]1c1ccc(NC(=O)CCCCNC(=O)c2ccc(O)c3ncccc23)cc1 (relative stereo)
2 = COC(=O)c1ccnc(-c2cc(C(=O)O)ccn2)c1
Q. Which value of IC50 is greater, the one for 1 or the one for 2 ? # respond with the chosen item's label
A. 1

P = N[C@@H]1C[C@H]1c1ccc(NC(=O)c2ccnc(-c3cc(C(=O)O)ccn3)c2)cc1 (relative stereo)
Q = Cl.N[C@@H]1C[C@H]1c1ccc(NC(=O)c2ccc(O)c3ncccc23)cc1 (relative stereo)
Q. Kindly compare P with Q and tell me which has the lower IC50 figure. # respond with the chosen item's label
A. P
(P: 0.19 µM, Q: 26 µM)

---

TEST_SYSTEM: Hypoxia-inducible factor 1-alpha inhibitor (Homo sapiens, UniProt Q9NWT6)
Sequence (Q9NWT6 whole entry): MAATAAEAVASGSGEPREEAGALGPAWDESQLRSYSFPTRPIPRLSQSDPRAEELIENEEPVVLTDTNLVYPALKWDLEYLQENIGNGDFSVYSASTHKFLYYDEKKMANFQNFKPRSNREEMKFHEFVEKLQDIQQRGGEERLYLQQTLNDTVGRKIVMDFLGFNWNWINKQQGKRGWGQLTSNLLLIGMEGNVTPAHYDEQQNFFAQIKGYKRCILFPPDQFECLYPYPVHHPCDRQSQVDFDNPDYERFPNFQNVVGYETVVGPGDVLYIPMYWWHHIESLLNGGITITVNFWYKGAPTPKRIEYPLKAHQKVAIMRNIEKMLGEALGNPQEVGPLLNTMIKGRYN
ASSAY_NOTES: Inhibition of FIH (unknown origin) by mass spectrometry
VALUE_TYPE: pIC50
Please keep in mind that pIC50 is minus log10 of the molar concentration; only the number is needed.

Q. Checklist item: pIC50 tested on Hypoxia-inducible factor 1-alpha inhibitor (Homo sapiens, UniProt Q9NWT6), entry Cl.N[C@@H]1C[C@H]1c1ccc(NC(=O)c2ccc(O)c3ncccc23)cc1 (relative stereo) , value?
A. 4.60

These entries and their values trace back to ChEMBL document CHEMBL3108715.
